runDescription: melting temperature; melt of duplexes
testParameters: sodium 0.0675 M; strand 1 µM
measure: Tm (°C)
Note: unit °C is implicit; provide only the numeric part.

Illustrative cases are given below, each with its answer.
substance="CGACGTGCATAATGTGCTG+CAGCACATTTCGCACGTCG ((((((((..(((((((((+)))))))))..))))))))" measure=Tm quantityunit=°C numericvalue=51
substance="CGACGTGCTGTATGTGCTG+CAGCACATCCGGCACGTCG ((((((((.(.((((((((+)))))))).).))))))))" measure=Tm quantityunit=°C numericvalue=52.8
substance="CGACGTGCTGTATGTGCTG+CAGCACATCGGGCACGTCG ((((((((...((((((((+))))))))...))))))))" measure=Tm quantityunit=°C numericvalue=50.6
substance="CGACGTGCAGAATGTGCTG+CAGCACATCGTGCACGTCG (((((((((..((((((((+))))))))..)))))))))" measure=Tm quantityunit=°C numericvalue=49
substance="CGACGTGCCAGATGTGCTG+CAGCACATAGGGCACGTCG (((((((((..((((((((+))))))))..)))))))))" measure=Tm quantityunit=°C numericvalue=55.8

Given the entry CGACGTGCCCAATGTGCTG+CAGCACATTATGCACGTCG ((((((((..(((((((((+)))))))))..)))))))) , report its measured Tm. 50.1

Given the entry CGACGTGCGCTATGTGCTG+CAGCACATACAGCACGTCG ((((((((..(((((((((+)))))))))..)))))))) , report its measured Tm. 52.1
